- Test system: OVCAR-3
- assay-notes: NCI tumour cell line growth inhibition, 48 h
Activity calls are given as the source filed them. Rule as the data show it: active = GI50 up to about 1.1 µM and inactive = higher.
quantity: GI50

Qu. GI50 for Cc1c2c(c(O)c3c(O)cccc13)C(=O)C1(O)C(=O)C(C(=O)NCNc3ccc(C(N)=O)cn3)=C(O)C(N(C)C)C1C2 (centres undefined) ?
Ans. 2.49 µM (inactive)

Qu. Please look up its GI50: "Cc1cc(C)c(O)c(CN2CCN(C(C)C)CCN(C(C)C)CC2)c1"
Ans. 22.2 µM (inactive)

Qu. GI50 lookup needed for "c1ccc(CNc2ncnc3nn[nH]c23)cc1" , thanks.
Ans. > 100 µM (inactive)

Qu. GET /values?readout=GI50&item= CC(=O)NNC1=NN(C(C)=O)C2(S1)C(=O)Nc1ccc(Br)cc12 (centres undefined)
Ans. > 100 µM (inactive)

Qu. Could you share which GI50 value was measured for "O=C(O)c1cc(C(=O)O)nc(C(=O)O)c1" ?
Ans. > 100 µM (inactive)

---

- System: OVCAR-3
- assay-notes: NCI tumour cell line growth inhibition, 48 h
Calls of active or inactive are those of the source. No stated cut-off is given here; in the data, active = GI50 up to about 1.1 µM and inactive = higher.
quantity: GI50

The cases that follow already have their GI50 on record.
> print(dat)
                                   compound             reported
1  COC(=O)CN1SC2(SC13C(C)(C)C(=O)C3(C)C)C(C)(C)C(=O)C2(C)C   41.6 µM (inactive)
2  CC1=C2C3OC(=O)C(C)C3CCC2(C)C=C/C1=N\c1ccccc1 (stereo not given)  > 100 µM (inactive)

Qu. Given the compound Cc1ccc2c(c1)NC(=O)C(N=[N+]=[N-])(c1ccccc1)C2=O (stereo not given) , what is its reported GI50?
Ans. 18.9 µM (inactive)

Qu. Bench note: what GI50 did "COc1cc(Br)c(/C=N\c2cccc3ccc(OS(=O)(=O)c4cccc([N+](=O)[O-])c4)cc23)cc1OC" show?
Ans. 32.7 µM (inactive)

Qu. So what's the measured GI50 for this one? "Nc1c(-c2ccc(Cl)c(Cl)c2)c2ccc([N+](=O)[O-])cc2c(=O)n1-c1nc2ccccc2s1"
Ans. 0.382 µM (active)

---

- System: SN12C
- assay-notes: NCI tumour cell line growth inhibition, 48 h
The source made the active and inactive calls. Cut-off read from the data, not from the text of the source: active = GI50 up to about 1.1 µM and inactive = higher.
I would appreciate it if you answered using one of these outcomes: true (1) (active), false (0) (inactive)

Reference set, count: 5
molecule	category-label
O=C1C=CC2(O[C@H](C3CCCCC3)[C@@H](C3CCCCC3)O2)C(SC(=O)c2ccccc2)C1 (some centres not stated)	false (0)
Cn1c2ccc([N+](=O)[O-])cc2c(=O)n1Cc1ccccc1F	false (0)
Cc1ccc(-c2nc3cc([N+](=O)[O-])ccc3[nH]2)cc1	false (0)
Clc1ncnc2c1nc(C#Cc1ccccc1)n2C1CCCCO1 (configuration not stated)	false (0)
COC(=O)c1ccccc1C1CN=NC12Cc1c(ccc(C)c1C)C2=O (configuration not stated)	false (0)

Qu. How did this test come out for "COc1ccc2oc3cccc(NCCN(C)C)c3c(=O)c2c1" ?
Ans. false (0)

Qu. What call does the record list for "N#Cc1cc2c(cc1C#N)SCCSCCCSCCS2" ?
Ans. false (0)

Qu. Call for entry "CCOC(=O)c1cc(Br)c(-c2cc(C)no2)[nH]1" :
Ans. false (0)

Qu. Could you check what this test reported for C=CCCN1CCc2c([nH]c3ccccc23)C1C(=O)O (configuration not stated) ?
Ans. false (0)

Qu. Hey, what did the test say about "Cc1ccc2nc(Cl)c(/C=N/N3C(=O)/C(=C/c4cccc([N+](=O)[O-])c4)N=C3c3ccccc3)cc2c1" ?
Ans. false (0)

Qu. # outcome recorded in this test, key = O=C1CSC(c2cc3cc(Br)ccc3nc2Cl)N1c1ccc(Cl)cc1 (configuration not stated)
Ans. false (0)

Qu. Which outcome did this test record for the molecule "O=C(N/N=C/c1c(-c2ccccc2)no[n+]1[O-])N1CCOCC1" ?
Ans. false (0)

Qu. Tell me the assay call for "CCC(=O)Nc1ccc(/N=N/N(C)C)cc1" please.
Ans. false (0)
